Target: PyasOBP2
Assay: Fluorescence competitive binding assay with 1-NPN as probe
Design: species or system Pachyrhinus yasumatsui
Conditions: dissociation constant calculated from IC50 by Ki=IC50/(1+[1-NPN]/K1-NPN); PyasOBP2 2 μM, 1-NPN 2 μM; listed as dipentene
assayReadout: Ki

> print(dat)
     smilesrepresentation     val
1  C=C(C)[C@H]1CC=C(C)CC1  < 5 µM

====

Target: PyasOBP2
Assay: Fluorescence competitive binding assay with 1-NPN as probe
Parameters: species or system Pachyrhinus yasumatsui
Conditions: dissociation constant calculated from IC50 by Ki=IC50/(1+[1-NPN]/K1-NPN); PyasOBP2 2 μM, 1-NPN 2 μM; listed as ethyl butyrate
Method: Fluorescence competitive binding assays were carried out on an F-2700 fluorescence spectrophotometer (Hitachi, Tokyo, Japan) to determine the binding affinity of PyasOBP2. 1-N-phenyl-naphthylamine (1-NPN) was used as a fluorescent probe ([Pelosi et al., 2006]) with excitation at 337 nm, and the emission spectra were measured from 370 to 550 nm. […]
assayReadout: Ki

> print(dat)
                       compound  assayreadout     val
1  CCCC(=O)OCC [Ethyl butyrate]            Ki  < 5 µM

====

Biological target: PyasOBP2
Assay: Fluorescence competitive binding assay with 1-NPN as probe
Set-up: species or system Pachyrhinus yasumatsui
Conditions: dissociation constant calculated from IC50 by Ki=IC50/(1+[1-NPN]/K1-NPN); PyasOBP2 2 μM, 1-NPN 2 μM; listed as cis-3-hexen-1-ol
pKi: −log10 of the molar value.
assayReadout: pKi

> print(dat)
                        molecule  assayreadout     val
1  CC/C=C\CCO [cis-3-Hexen-1-ol]           pKi  > 5.00

====

Molecular target: PyasOBP2
Assay: Fluorescence competitive binding assay with 1-NPN as probe
Design: species or system Pachyrhinus yasumatsui
Conditions: dissociation constant calculated from IC50 by Ki=IC50/(1+[1-NPN]/K1-NPN); PyasOBP2 2 μM, 1-NPN 2 μM
pKi: −log10 of the molar value.
assayReadout: pKi

> print(dat)
                                    compound  comparator   val
 1               OCc1ccccc1 [Benzyl alcohol]           =  4.92
 2                      CCCCCCCC=O [Octanal]           =  5.18
 3  CC(C)=Cc1ccccc1 [2-Methyl-1-phenylpropene]           =  5.34
 4          CCC/C=C/C=O [trans-2-Hexen-1-al]           =  4.87
 5   CC1=CC[C@H](C(C)C)C=C1 [α-Phellandrene]           =  5.04
 6             CC/C=C\CCO [cis-3-Hexen-1-ol]           =  5.16
 7               C=CC(=C)CCC=C(C)C [Myrcene]           =  5.05
 8  CC/C=C\CCOC(=O)C(C)CC (stereo not shown)           =  4.99
 9  CCCCOC(=O)c1ccccc1C(=O)OCCCC [Dibutyl phthalate]           =  5.11
10           CCC/C=C/CO [trans-2-Hexen-1-ol]           =  5.18
11        CC12CCC(CC1)C(C)(C)O2 [Eucalyptol]           =  4.89
12               CC(C)C=O [Isobutyraldehyde]           =  4.96
13               CCCCOC(C)=O [Butyl acetate]           <  4.70
14                  CCCCCCC=O [Heptaldehyde]           =  4.94
15  C=CC(C)(O)CCC=C(C)C (stereo not shown) [Linalool]           =  5.01
16  CCCCCCCCCCCCCCCC(=O)OC [Methyl palmitate]           <  4.70
17  CC1=CCC2C(C1)C2(C)C (stereo not shown) [3-Carene]           <  4.70
18                  CCCCCC=O [Caproaldehyde]           =  5.10
19                     CCCCCCCCC=O [Nonanal]           =  4.88
20              CCCC(=O)OCC [Ethyl butyrate]           =  5.52
21  CC1=CCC2CC1C2(C)C (stereo not drawn) [α-Pinene]           =  5.04
22  C=C1C2CCC(C2)C1(C)C (stereo not shown) [Camphene]           =  5.15
23        C=C(C)[C@H]1CC=C(C)CC1 [Dipentene]           =  5.22
24  C=CC(C)(O)CCC=C(C)CCC=C(C)C (mixture of isomers) [Nerolidol]           =  5.19
25               C=CC(C)=CCC=C(C)C [Ocimene]           =  5.05
